// data source = ChEMBL document CHEMBL1287661

- SYSTEM: N-formyl peptide receptor 2 (Homo sapiens)
- ASSAY_PROTOCOL: Agonist activity at human FPR2 expressed in RBL-2H3 cells assessed as induction of calcium mobilization
- Type: functional, cell-based
Activity calls are given as the source filed them. No rule for the calls is given here.
Outcome (select one): active, inactive

{"COMPOUND": "COc1ccc(NC(=S)NN2C(=O)CSC2c2c[nH]c3ccccc23)cc1 (stereo not drawn)", "LABEL_VALUE": "active"}
{"COMPOUND": "O=C1NCC(c2ccccc2)C1C(=O)N/N=C/C=C/c1ccc(Br)cc1 (stereo not drawn)", "LABEL_VALUE": "inactive"}

Please indicate how the test categorized COc1ccc(CCNC(=O)Nc2ccccc2)cc1 . active

Hello, I am checking results. What call was entered for Cc1ccc(N2CCN(CC(=O)Nc3ccc(Br)cc3)CC2)cc1Cl ? active

What classification did O=C(CN1CCN(c2ccccc2)CC1)Nc1ccccc1 end up with in this test? inactive

Check the results log: what was the call for COc1ccc2[nH]c(SCC(=O)Nc3ccccc3OC)nc2c1 ? active

Could you check what this test reported for O=C(CN1CCN(c2ccccc2)CC1)Nc1ccc(Br)cc1 ? active

Please let me know the test result on file for O=C(CSc1nc2ccccc2[nH]1)Nc1ccccc1 . inactive

What outcome does the record of this test show for O=C1NCC(c2ccccc2)C1C(=O)N/N=C/C=C/c1ccccc1[N+](=O)[O-] (stereo not drawn) ? active

###

- SYSTEM: N-formyl peptide receptor 2 (Homo sapiens) (UniProt P25090)
- Sequence (P25090 whole entry): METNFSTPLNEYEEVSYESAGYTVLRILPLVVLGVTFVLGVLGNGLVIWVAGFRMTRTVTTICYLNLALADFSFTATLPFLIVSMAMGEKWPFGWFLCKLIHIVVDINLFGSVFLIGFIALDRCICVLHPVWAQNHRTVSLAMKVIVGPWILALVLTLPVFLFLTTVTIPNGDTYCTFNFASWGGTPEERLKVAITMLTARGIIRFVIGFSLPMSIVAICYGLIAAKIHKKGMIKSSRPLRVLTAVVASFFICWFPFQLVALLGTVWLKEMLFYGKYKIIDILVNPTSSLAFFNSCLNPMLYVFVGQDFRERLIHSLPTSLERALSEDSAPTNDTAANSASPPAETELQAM
- ASSAY_PROTOCOL: Agonist activity at human FPR2 expressed in RBL-2H3 cells assessed as induction of calcium mobilization
- Type: functional, cell-based
Activity calls are given as the source filed them. No rule for the calls is given here.
Pick from active, inactive when you respond.

Just curious, what result did O=C(CN1CCN(c2ccccn2)CC1)Nc1ccc(Cl)cc1 get here? inactive

Please indicate how the test categorized O=C(NCCc1ccccc1)Nc1ccccc1 . inactive

Assay outcome for CC(C)c1c(NC(=O)Nc2ccc(Cl)cc2)c(=O)n(-c2ccccc2)n1C : what was it? active

###

- SYSTEM: N-formyl peptide receptor 2 (Homo sapiens) (UniProt P25090)
- ASSAY_PROTOCOL: Agonist activity at human FPR2 expressed in RBL-2H3 cells assessed as induction of calcium mobilization
- Type: functional, cell-based
Activity calls are given as the source filed them. No rule for the calls is given here.
EXPERIMENTAL_ENDPOINT: Activity

Some solved entries appear below for comparison.
{"COMPOUND": "O=C(CN1CCN(c2ccccc2)CC1)Nc1ccccc1Br", "VAL": "inactive"}
{"COMPOUND": "O=C(CN1CCN(c2ccc(Cl)cc2)CC1)Nc1ccc(Br)cc1", "VAL": "Active"}
{"COMPOUND": "COc1ccc2[nH]c(SCC(=O)Nc3ccc(OC)c(OC)c3)nc2c1", "VAL": "Active"}
{"COMPOUND": "COc1ccc(CCNC(=O)Nc2ccc(Cl)cc2)cc1", "VAL": "Active"}
{"COMPOUND": "COc1ccc(NC(=O)CCCCc2cccs2)cc1", "VAL": "Active"}
{"COMPOUND": "COc1ccc(CC(=O)N/N=C/C=C/c2ccccc2[N+](=O)[O-])cc1OC", "VAL": "Active"}

Fill in the blank: the reported Activity of O=C(NNC(=O)c1ccccc1[N+](=O)[O-])c1ccc(Cl)cc1 is ____. Active

Tell me the measured Activity of CCc1nc2ccccc2n1[C@@H]1CCN(C(=O)c2nc3cc(OC)ccc3[nH]2)C1 , please. Active

Field request: Activity | item: COc1ccc(C2Nc3ccccc3C(=O)N2NC(=O)c2ccc([N+](=O)[O-])cc2)cc1 (centres undefined) Active
